TARGET OF ASSAY: recombinant human IL-1 beta (human, UniProt P01584 117-269)
ASSAY OVERVIEW: cell-based or functional assay
Reported IC50 of IL-1 beta-induced IL-6 release from human dermal fibroblasts values are given for each entry in this list.
Write the value in nM as a bare number.

A selection of reference data follows.
DLX2476 (scFv) scFv: EIVMTQSPSTLSASVGDRVIITCQASQSISSWLSWYQQKPGKAPKLLIYRASTLASGVPSRFSGSGSGAEFTLTISSLQPDDFATYYCQNTGGGVSIAFGQGTKLTVLGGGGGSGGGGSGGGGSGGGGSEVQLVESGGGLVQPGGSLRLSCTASGFSLSSAAMAWVRQAPGKGLEWVGIIYDSASTYYASWAKGRFTISRDTSKNTVYLQMNSLRAEDTAVYYCARERDIFSGDFVGWGQGTLVTVSS	0.1
DLX2464 (scFv) scFv: EIVMTQSPSTLSASVGDRVIITCQASQSIDNWLSWYQQKPGKAPKLLIYRASTLASGVPSRFSGSGSGAEFTLTISSLQPDDFATYYCQNTGGGVSIAFGQGTKLTVLGGGGGSGGGGSGGGGSGGGGSEVQLVESGGGLVQPGGSLRLSCTASGFSLSSAAMAWVRQAPGKGLEWVGIIYDSASTYYASWAKGRFTISRDTSKNTVYLQMNSLRAEDTAVYYCARERQIFSGDMAGWGQGTLVTVSS	0.004
DLX2466 (scFv) scFv: EIVMTQSPSTLSASVGDRVIITCQASQSIGKYLSWYQQKPGKAPKLLIYRASTLASGVPSRFSGSGSGAEFTLTISSLQPDDFATYYCQNAGGGVSIAFGQGTKLTVLGGGGGSGGGGSGGGGSGGGGSEVQLVESGGGLVQPGGSLRLSCTASGFSLSSDAMAWVRQAPGKGLEWVGIIYDSASTYYASWAKGRFTISRDTSKNTVYLQMNSLRAEDTAVYYCARERNIFSGDMAGWGQGTLVTVSS	0.3

Continue with the next binder.
Would you mind telling me what IC50 of IL-1 beta-induced IL-6 release from human dermal fibroblasts value was observed for DLX2467 (scFv) scFv: EIVMTQSPSTLSASVGDRVIITCQASQSIHNWLSWYQQKPGKAPKLLIYRASNLASGVPSRFSGSGSGAEFTLTISSLQPDDFATYYCQNTGGGSSIAFGQGTKLTVLGGGGGSGGGGSGGGGSGGGGSEVQLVESGGGLVQPGGSLRLSCTASGFSLSRAAMAWVRQAPGKGLEWVGIIYDSASTYYASWAKGRFTISRDTSKNTVYLQMNSLRAEDTAVYYCARERMIFSGDFVLWGQGTLVTVSS ?
0.025
